Readings of log fold change Tl+ flux for the listed molecules
test system: R275C/Slo1WT/beta2; test: modulators of BK channel variants, profiling panel, selectivity assay, cell-based, U2OS BacMam, thallium flux, beta subunits (AID 1259406); settings: at 30 µM;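 further: initial slope of Thallos dye fluorescence rise after thallium is added; log ratio against the mean of 0.3% DMSO vehicle wells on the same plate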
Reply: number alone, nothing else.

Here's what some known entries look like.
>  <MOLECULE>
Cc1nnc(SCC2=C(C(=O)O)N3C(=O)C(NC(=O)Cn4cnnn4)C3SC2)s1 (configuration not stated)

>  <log fold change Tl+ flux>
0.0155

$$$$
>  <MOLECULE>
CCCCC#Cc1ccc(C(=O)NNC(=O)Nc2ccccc2)o1

>  <log fold change Tl+ flux>
0.023

$$$$
>  <MOLECULE>
COc1ccc2c(OC(C)=O)coc2c1

>  <log fold change Tl+ flux>
-0.00513

$$$$
>  <MOLECULE>
CC1(C)CC(=O)N(c2cc(Cl)cc(Cl)c2)C(=O)C1

>  <log fold change Tl+ flux>
-0.0488

$$$$
>  <MOLECULE>
COC(=O)CC1(C(=O)OC)Oc2ccc(Br)cc2C(=O)N1c1cccc(Cl)c1Cl (configuration not stated)

>  <log fold change Tl+ flux>
-0.0135

$$$$
>  <MOLECULE>
N#Cc1c(F)cccc1NC1CCN(Cc2ccccc2)CC1

>  <log fold change Tl+ flux>
-0.0644

$$$$
>  <MOLECULE>
O=C(NC(CO)C(O)c1ccc([N+](=O)[O-])cc1)C(Cl)Cl (configuration not stated)

>  <log fold change Tl+ flux>
0.0603

$$$$
>  <MOLECULE>
CN1[C@@H]2CCC[C@H]1CC(NC(=O)c1nn(C)c3ccccc13)C2 (some centres not stated)

>  <log fold change Tl+ flux>
0.0272

$$$$

Give the reported log fold change Tl+ flux for this molecule. CS(=O)(=O)NNc1c(Cl)cc(Cl)cc1Cl
0.0607

Give the reported log fold change Tl+ flux for this molecule. CSc1nc(N)nc(-c2cccs2)n1
0.0475

Give the reported log fold change Tl+ flux for this molecule. CN1CCC[C@H]1c1cccnc1
-0.00315

Give the reported log fold change Tl+ flux for this molecule. O=C1c2cc(S(=O)(=O)O)ccc2CCC1S(=O)(=O)O (configuration not stated)
-0.0389

* * *

assay: sensitizers of A549 cells to miR-34 induction, primary screen, imaging, A549 dox-inducible miR-34, nuclei and caspase counts (AID 1347080); details: A549 miR-34 inducible, Hoechst nuclei count, 48 h; measured here: total cells without miR-34 induction
// returns Not met unless cell count is strictly below 8000, in which case Met

Record excerpt, results attached:
>  <COMPOUND>
CC(=O)OCC(=O)[C@@]1(O)[C@H](OC(C)=O)CC2C3CCC4=CC(=O)C=C[C@]4(C)[C@@]3(F)[C@@H](O)C[C@@]21C (some centres not stated)

>  <LABEL>
Not met

$$$$
>  <COMPOUND>
CN(C)C1C(=O)C(C(N)=O)=C(O)C2(O)C(=O)C3=C(O)c4c(O)ccc(Cl)c4C(O)C3CC12 (configuration not stated)

>  <LABEL>
Met

$$$$
>  <COMPOUND>
CO[C@@]1(NC(=O)CSCC#N)C(=O)N2C(C(=O)O)=C(CSc3nnnn3C)CSC21 (some centres not stated)

>  <LABEL>
Not met

$$$$

Bench note: check whether CC(=O)CCCCn1cnc2c1c(=O)n(C)c(=O)n2C shows cell count below 8000
Not met

Bench note: check whether Nc1nc(NC2CC2)c2ncn(C3C=C[C@@H](CO)C3)c2n1 (some centres not stated) shows cell count below 8000
Not met

Bench note: check whether COc1cc([C@@H]2c3cc4c(cc3[C@H](O)C3COC(=O)[C@@H]32)OCO4)cc(OC)c1OC (some centres not stated) shows cell count below 8000
Met

Bench note: check whether Cc1cc(=O)oc2cc(NC(=O)C3CCC(=O)N3)ccc12 (configuration not stated) shows cell count below 8000
Not met

Bench note: check whether O=C1N=C(O)CN1N=Cc1ccc(-c2ccc([N+](=O)[O-])cc2)o1 shows cell count below 8000
Met

Bench note: check whether CCC(CC)O[C@@H]1C=C(C(=O)OC)C[C@H](N)[C@H]1NC(C)=O shows cell count below 8000
Not met

Bench note: check whether CC(C)[C@@H]1CC[C@@H](C)C[C@H]1O shows cell count below 8000
Not met

Bench note: check whether CC(=O)OCC(=O)C12OC3(CCCC3)OC1CC1C3CCC4=CC(=O)C=CC4(C)C3(F)C(O)CC12C (configuration not stated) shows cell count below 8000
Met
